target: UniProt Q15418; assay: RSK1 kinase assay; assay type: biochemical; details: 10 μM compound; read-out: RSK1 percent of inhibition
Sequence (Q15418 whole entry, species assumed): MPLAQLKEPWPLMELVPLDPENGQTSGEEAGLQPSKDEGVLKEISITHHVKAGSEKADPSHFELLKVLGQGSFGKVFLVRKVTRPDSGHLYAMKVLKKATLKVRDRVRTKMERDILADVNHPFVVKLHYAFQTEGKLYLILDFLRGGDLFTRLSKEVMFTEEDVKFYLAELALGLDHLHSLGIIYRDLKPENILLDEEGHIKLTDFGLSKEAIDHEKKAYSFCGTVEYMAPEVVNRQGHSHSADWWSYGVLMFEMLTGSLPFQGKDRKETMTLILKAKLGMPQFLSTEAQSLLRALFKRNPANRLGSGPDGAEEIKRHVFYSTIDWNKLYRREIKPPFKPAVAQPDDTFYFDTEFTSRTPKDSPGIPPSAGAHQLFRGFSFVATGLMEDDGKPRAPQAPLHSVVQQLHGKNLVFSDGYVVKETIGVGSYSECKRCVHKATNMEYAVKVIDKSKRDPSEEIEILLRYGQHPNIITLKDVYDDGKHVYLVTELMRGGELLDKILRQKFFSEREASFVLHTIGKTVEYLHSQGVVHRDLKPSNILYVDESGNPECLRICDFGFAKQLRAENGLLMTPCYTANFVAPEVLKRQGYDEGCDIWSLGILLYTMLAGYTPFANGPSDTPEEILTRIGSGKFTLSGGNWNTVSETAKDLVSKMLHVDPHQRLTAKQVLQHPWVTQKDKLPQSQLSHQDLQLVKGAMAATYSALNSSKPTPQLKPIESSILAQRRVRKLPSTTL
readout kind: inhibition at 10 µM (%)
Give the value, in units of %, as a plain number.

Entry `Fc1cccc(Nc2ncnc3sc4ccccc4c23)c1` needs its inhibition at 10 µM filled in; supply it. 1

Kindly indicate its recorded inhibition at 10 µM. Item: `Fc1ccc(Nc2ncnc3sc4c(c23)CCCC4)cc1` 19

Find the measured inhibition at 10 µM of `Clc1cccc(Nc2nc(C3CC3)nc3sc4ccccc4c23)c1` and report it. -7

Item `COc1cccc(Nc2nc(C3CC3)nc3sc4c(c23)CCCC4)c1` : provide inhibition at 10 µM 8

Specify reported inhibition at 10 µM for the compound shown: `Fc1ccccc1Nc1ncnc2sc3c(c12)CCCC3` -18
